This section presents compounds with their documented TGI values.
Tested on: SF-539 CNS
Assay details: NCI tumour cell line growth inhibition, 48 h
Metric: TGI (µM)

>>> result("CCCCCCCCCN1CCC(=O)C(C(=O)OC)C1 (stereo not given)")
36.5
>>> result("O=C(/C=C\\c1ccnc2ccccc12)c1ccc([N+](=O)[O-])cc1")
24.9
>>> result("CC(=O)/C(C)=N/N/C(N)=N\\S(=O)(=O)c1cc(C(=O)Nc2ccccc2)c(Cl)cc1SCc1ccccc1")
8.05
>>> result("COc1cc(CC2c3cc(OC)c(OC)cc3CCN2C)c(Oc2cc3c(cc2OC)-c2c(OC)c(OC)c(OC)c4c2C(C3)N(C)CC4)cc1OC (stereo not given)")
25.8
